EC50 by entry:
- TARGET OR SYSTEM: GAL4 DBD (1-147)-CfEcR(DEF)/VP16AD-βRXREF-LmUSPEF (Choristoneura fumiferana, UniProt O77240)
- EXPERIMENTAL PROTOCOL: cell-based
- CONDITION DESCRIPTION: read-out: 27-63 assay EC50; CHO 27-63 stable cell line, luciferase reporter; average of two wells
METRIC NAME: EC50 (µM)

MOL SMILES	VALUE
CCc1c(C(=O)NN(C(=O)c2ccccc2)C(C)(C)C)ccc2c1OCOC2	5.66
COc1cccc(C(=O)NN(C(=O)c2cc(C)cc(C)c2)C(C)(C)C)c1[N+](=O)[O-]	4.13
Cc1c(C(=O)NN(C(=O)c2ccc(F)c(F)c2)C(C)(C)C)ccc2c1CCCO2	0.637

* * *

fold induction at 3.3 µM by entry:
- TARGET OR SYSTEM: GAL4 DBD (1-147)-CfEcR(DEF)/VP16AD-βRXREF-LmUSPEF (Choristoneura fumiferana, UniProt O77240)
- EXPERIMENTAL PROTOCOL: cell-based
- CONDITION DESCRIPTION: read-out: Fold Induction, 27-63 Assay, 3.3 uM
METRIC NAME: fold induction at 3.3 µM

COMPOUND	VALUE
COc1cccc(C(=O)NN(C(=O)c2cc(Cl)c(F)c(Cl)c2)C(C)(C)C)c1C	2700
CCc1c(OC)cccc1C(=O)NN(C(=O)c1cc(C)cc(C)c1)C(C)(C)C=O	1610
CCC(N(NC(=O)c1cccc(OC)c1C)C(=O)c1cc(OC)c(C)c(OC)c1)C(C)(C)C (centres unmarked)	2860
Cc1cc(C)cc(C(=O)N(NC(=O)c2ccc3c(c2C)OCCO3)C(C)(C)C)c1	2550
CCc1ccc(C(=O)NN(C(=O)c2cc(C)cc(C)c2)C(C)(C)C)c(F)c1	2430
CCOC(=O)C(C)(C)N(NC(=O)c1cccc(OC)c1CC)C(=O)c1cc(C)cc(C)c1	2290
CCC(N(NC(=O)c1cccc(C)c1C)C(=O)c1cc(C)cc(C)c1)C(C)(C)C (centres unmarked)	2540
CCCC(N(NC(=O)c1cccc(OC)c1CC)C(=O)c1cc(OC)c(C)c(OC)c1)C(C)(C)C (centres unmarked)	2600
COc1cc(C(=O)N(NC(=O)c2ccc3c(c2C)OCCO3)C(C)(C)C#N)cc(OC)c1C	2870
CCc1c(OC)cccc1C(=O)NN(C(=O)c1cc(C)cc(C)c1)C(C)(C)C(=O)O	1
CCc1c(C(=O)NN(C(=O)c2cc(C)cc(Cl)c2)C(C)(C)C)ccc2c1OCCO2	717
CC(C)(C)N(NC(=O)c1ccc(Cl)cc1)C(=O)c1ccccc1	1
CCc1c(OC)cccc1C(=O)NN(C(=O)c1cc(C)cc(C)c1)C(C)(C)C=NO	1970
CCc1c(OC)cccc1C(=O)NN(C(=O)c1cc(C)cc(C)c1)C(C)(C)CO[Si](C)(C)C(C)(C)C	2
CCC(N(NC(=O)c1cccc(OC)c1C)C(=O)c1cc(C)cc(C)c1)C(C)(C)C (centres unmarked)	1970
COc1cc(C(=O)N(NC(=O)c2ccc3c(c2C)OCCO3)C(C)(C)C)cc(OC)c1C	4160
COc1cccc(C(=O)NN(C(=O)c2cc(C)cc(C)c2)C(C)(C)C)c1C	2880
